# TESTED ON: T1, full length recombinant human 2N4R tau (human, UniProt P10636 1-758)
# T1 construct: bought from rPeptide; pHrodo Red maleimide-labelled where it stands in uptake assays; also called tau1-441; full length tau
# T1 sequence (P10636 other isoform, or with tags, fused parts or gaps limits assumed): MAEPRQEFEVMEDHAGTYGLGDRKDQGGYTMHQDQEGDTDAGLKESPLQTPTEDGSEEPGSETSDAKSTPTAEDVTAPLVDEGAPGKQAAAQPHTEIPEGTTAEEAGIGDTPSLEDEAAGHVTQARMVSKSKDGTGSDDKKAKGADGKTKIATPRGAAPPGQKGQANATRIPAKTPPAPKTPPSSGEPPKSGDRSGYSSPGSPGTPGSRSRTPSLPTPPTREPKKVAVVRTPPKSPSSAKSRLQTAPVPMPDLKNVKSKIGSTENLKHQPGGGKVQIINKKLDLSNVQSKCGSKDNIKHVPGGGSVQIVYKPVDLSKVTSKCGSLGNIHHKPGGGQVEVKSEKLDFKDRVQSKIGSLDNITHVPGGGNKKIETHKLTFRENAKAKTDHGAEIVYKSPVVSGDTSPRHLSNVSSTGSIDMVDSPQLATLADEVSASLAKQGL
# MEASUREMENT DESCRIPTION: SPR SCK, IgG on Protein A, tau in flow

BINDER | Fold change (KD, to pVH/pVL)
#44_VH4VK4_H19/pVL (antibody, V domains shown, also called Clone VH4_H19; #44_VH4_H19) VH: QVQLQESGPGLVKPSETLSLTCTVSGIDLSSYAMAWVRQAPGKGLEWIGAIDSRGATFYASWVKGRFTISKDTSKTTVDLQMTSLTAEDTATYFCARDSGAFDPWGQGTLVTVSS VL: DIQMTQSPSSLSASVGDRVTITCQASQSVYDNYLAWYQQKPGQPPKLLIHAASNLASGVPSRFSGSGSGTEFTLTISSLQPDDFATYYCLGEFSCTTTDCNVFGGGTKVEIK | 0.68
#44_VH4VK4_H08/pVL (antibody, V domains shown, also called Clone VH4_H08; #44_VH4_H08) VH: QVQLQESGPGLVKPSETLSLTCTVSGIDLSSYAMAWVRQAPGKGLEWIGAIDAAGRTFYASWVKGRFTISKDTSKTTVDLQMTSLTAEDTATYFCARDSGAFDPWGQGTLVTVSS VL: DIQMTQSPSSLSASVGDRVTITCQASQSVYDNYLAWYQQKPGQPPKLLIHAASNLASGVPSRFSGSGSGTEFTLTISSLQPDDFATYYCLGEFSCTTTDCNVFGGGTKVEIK | 0.26
#44_VH4VK4_H01/pVL (antibody, V domains shown, also called Clone VH4_H01; #44_VH4_H01) VH: QVQLQESGPGLVKPSETLSLTCTVSGIDLSSYAMAWVRQAPGKGLEWIGCIDRRGGTFYASWVKGRFTISKDTSKTTVDLQMTSLTAEDTATYFCARDVGSFDVWGQGTLVTVSS VL: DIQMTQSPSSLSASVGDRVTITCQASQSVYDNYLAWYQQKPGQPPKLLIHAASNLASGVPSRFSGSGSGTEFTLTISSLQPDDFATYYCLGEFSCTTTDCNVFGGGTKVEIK | 2.43
#44_VH4VK4_H03/pVL (antibody, V domains shown, also called Clone VH4_H03; #44_VH4_H03) VH: QVQLQESGPGLVKPSETLSLTCTVSGIDLSSYAMAWVRQAPGKGLEWIGCIDRRGGTFYASWVKGRFTISKDTSKTTVDLQMTSLTAEDTATYFCARDAGAFDVWGQGTLVTVSS VL: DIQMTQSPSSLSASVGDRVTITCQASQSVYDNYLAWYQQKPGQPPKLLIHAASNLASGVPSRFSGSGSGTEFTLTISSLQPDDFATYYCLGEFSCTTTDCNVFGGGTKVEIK | 1.03
#44_VH4_H13/L2 (antibody, V domains shown, also called Clone VH4_H13/L2) VH: QVQLQESGPGLVKPSETLSLTCTVSGIDLSSYAMAWVRQAPGKGLEWIGAIDSAGNTFYASWVKGRFTISKDTSKTTVDLQMTSLTAEDTATYFCARDSGAFDPWGQGTLVTVSS VL: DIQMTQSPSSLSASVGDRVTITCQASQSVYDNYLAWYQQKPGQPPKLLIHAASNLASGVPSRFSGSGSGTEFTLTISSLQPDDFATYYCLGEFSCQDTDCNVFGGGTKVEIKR | 0.28
